Source: ChEMBL document CHEMBL3244375

# Test system: Rattus norvegicus
# method: Toxicity in Sprague-Dawley rat assessed as increase in liver weight at 0.125 % compound administered in diet for 14 days relative to control
# Format: organism-based
# settings: in vivo, po, 336 h
measured property: Activity (%)
Give the value in % but do not write % after it.

Challenge: // query Activity value for entry CCCCC(Sc1cc(C(C)(C)C)cc(C(C)(C)C)c1)C(=O)O (stereo not given)
Response given: 20

Challenge: What value of measured Activity is listed for CCCCCCC(C)(Sc1cc(C(C)(C)C)cc(C(C)(C)C)c1)C(=O)O (stereo not given) ?
Response given: 30

Challenge: Please report the recorded Activity for CCCCC(Sc1ccccc1)C(=O)O (stereo not given) .
Response given: 0

Challenge: Would you kindly share the measured Activity for CCCCC(C)(Sc1cc(C(C)(C)C)c(O)c(C(C)(C)C)c1)C(=O)O (stereo not given) ?
Response given: 20

Challenge: Activity lookup needed for CCCC(Sc1cc(C(C)(C)C)c(O)c(C(C)(C)C)c1)C(=O)O (stereo not given) , thanks.
Response given: 30

Challenge: GET /values?readout=Activity&item= CCCCC(Sc1cc(C(C)(C)C)c(O)c(C(C)(C)C)c1)C(=O)O (racemic)
Response given: 10

Challenge: Name the reported Activity value associated with the molecule CCCCCC(C)(Sc1cc(C(C)(C)C)c(O)c(C(C)(C)C)c1)C(=O)O (stereo not given)
Response given: 10

Challenge: Item CCCCC(Oc1cc(C(C)(C)C)c(O)c(C(C)(C)C)c1)C(=O)O (stereo not given) has what recorded Activity?
Response given: 20

Challenge: Could you tell me which Activity is on file for CCCCC(Sc1ccc(C)cc1)C(=O)O (stereo not given) ?
Response given: 0

Challenge: Using the record for CCCCCCC(C)(Sc1cc(C(C)(C)C)c(O)c(C(C)(C)C)c1)C(=O)O (stereo not given) , report its Activity.
Response given: 10

Challenge: Param item = CCCC(C)(Sc1cc(C(C)(C)C)c(O)c(C(C)(C)C)c1)C(=O)O (stereo not given) ; retrieve measured Activity.
Response given: 30

Challenge: Entry CCCCC(Oc1cc(C(C)(C)C)c(O)c(C(C)(C)C)c1)C(=O)OCC (stereo not given) : reported Activity = ?
Response given: 10

Challenge: Tell me the measured Activity of CCCCC(Sc1ccc(Br)c(C)c1)C(=O)O (stereo not given) , please.
Response given: 20

---

# method: Toxicity in rat
# Assay type: organism-based
# settings: in vivo
measured property: LD50 (mg/kg)
Report as a plain number; the unit mg/kg is understood.

Challenge: Which value of LD50 has been reported for CCCCC(Sc1cc(C(C)(C)C)c(O)c(C(C)(C)C)c1)C(=O)O (racemic) in the records?
Response given: 7200

---

# System: Rattus norvegicus
# method: Hypolipidemic activity in Sprague-Dawley rat assessed as reduction in serum cholesterol level at 0.125 % compound administered in diet for 14 days relative to control
# Assay type: functional
# Design: scale not given: the % may be the effect or the level left
Please assign condition not met whenever Activity is at or above -10%, and condition met whenever it is below.

Challenge: Criterion: Activity strictly below -10%. Is it met by CCCCCCC(C)(Sc1cc(C(C)(C)C)cc(C(C)(C)C)c1)C(=O)O (stereo unspecified) ?
Response given: condition met

Challenge: Threshold test, Activity < -10%: CCCCC(Sc1cc(C2CCCCC2)c(O)c(C2CCCCC2)c1)C(=O)O (stereo unspecified)
Response given: condition not met

Challenge: Please let me know if CCCCC(C)(Sc1cc(C(C)(C)C)c(O)c(C(C)(C)C)c1)C(=O)O (stereo unspecified) shows Activity below -10%.
Response given: condition not met

Challenge: Identify whether the compound CCOC(=O)C(CC)Sc1cc(C(C)(C)C)c(O)c(C(C)(C)C)c1 (stereo unspecified) records Activity below -10%.
Response given: condition not met

Challenge: Activity strictly < -10% for this compound? CCCCC(Sc1ccccc1)C(=O)O (stereo unspecified)
Response given: condition met

Challenge: Dear colleague, could you confirm whether Activity of CCCCC(C(=O)OCC)c1cc(C(C)(C)C)c(O)c(C(C)(C)C)c1 (stereo unspecified) falls below -10%? Thanks.
Response given: condition not met

Challenge: Lab note: Activity threshold -10%. Does this compound come in strictly under it? CCCCC(Oc1cc(C(C)(C)C)c(O)c(C(C)(C)C)c1)C(=O)O (stereo unspecified)
Response given: condition not met

Challenge: Dear reviewer, please state whether CCCCCC(C)(Sc1cc(C(C)(C)C)cc(C(C)(C)C)c1)C(=O)O (stereo unspecified) has Activity strictly beneath -10%.
Response given: condition met

Challenge: Could you please tell me whether Activity recorded for `CC(C)(Sc1cc(C(C)(C)C)cc(C(C)(C)C)c1)C(=O)O` is less than -10%?
Response given: condition met

Challenge: Problem: For the compound `CC(C)(C)c1cc(OCC(=O)O)cc(C(C)(C)C)c1O` , is Activity under -10%?
Response given: condition not met
